Each entry below carries its reported pIC50.
- TESTED_SYSTEM: Acetylcholinesterase (Homo sapiens, UniProt P22303)
- Sequence (P22303 whole entry): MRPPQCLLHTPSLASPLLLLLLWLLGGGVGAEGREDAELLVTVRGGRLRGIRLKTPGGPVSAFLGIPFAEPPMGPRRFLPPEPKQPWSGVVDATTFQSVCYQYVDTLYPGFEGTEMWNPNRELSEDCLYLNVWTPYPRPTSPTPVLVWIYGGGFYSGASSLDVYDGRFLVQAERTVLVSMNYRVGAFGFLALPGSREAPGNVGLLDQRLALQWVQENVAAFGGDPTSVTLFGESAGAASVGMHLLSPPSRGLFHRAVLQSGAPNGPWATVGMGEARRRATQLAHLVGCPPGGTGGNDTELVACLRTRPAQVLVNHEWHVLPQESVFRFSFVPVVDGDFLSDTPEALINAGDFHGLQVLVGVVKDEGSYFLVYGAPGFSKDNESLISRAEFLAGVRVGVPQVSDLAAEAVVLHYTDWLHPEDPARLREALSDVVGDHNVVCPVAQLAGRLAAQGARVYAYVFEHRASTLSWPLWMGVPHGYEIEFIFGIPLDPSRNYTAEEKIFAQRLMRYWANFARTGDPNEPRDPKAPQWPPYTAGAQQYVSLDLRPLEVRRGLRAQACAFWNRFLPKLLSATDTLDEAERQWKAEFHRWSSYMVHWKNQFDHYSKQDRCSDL
Conceptually, pIC50 converts a concentration in mol/L into minus its log10.

Please review the entries below; each comes with its answer.
{"MOLECULE": "COC(=O)CC1=NO[C@@H]2[C@H]3CC[C@H](C3)[C@@H]2[C@H]1c1ccccc1", "pIC50": 5.20}
{"MOLECULE": "COC(=O)C(CC1=C(c2ccc(Cl)cc2)CC(C)(C)ON1C(C)=O)C(=O)OC", "pIC50": 4.33}

So what does the record say about pIC50 for COC(=O)C(CC1=C(c2ccccc2)CC(C)(C)ON1C(C)=O)C(=O)OC ?
4.92

Let us now turn to COC(=O)C(CC1=NO[C@@H]2CCCC2[C@H]1c1ccccc1)C(=O)OC (single isomer, unassigned)
4.12

Try COC(=O)C(CC1=C(c2ccc(OC)cc2)CC(C)(C)ON1C(C)=O)C(=O)OC next.
4.84

Also need CC(=O)N1OC(C)(C)CC(c2ccccc2)=C1CN1C(=O)c2ccccc2C1=O , thanks.
5.60

Now the same for COC(=O)CC1=NO[C@@H]2CCCC[C@@H]2[C@H]1c1ccccc1
4.45

Repeat for the following molecule: CC1(C)C[C@@H](c2ccccc2)C(CN2C(=O)c3ccccc3C2=O)=NO1
4.18
